Attribution: patent US20240116985A1

Quick list: pIC50 per entry.
- assay_system: full-length beta-Catenin (Uniprot ID P35222) (Homo sapiens, UniProt P35222)
- Construct: 10 nM full-length beta-Catenin (Uniprot ID P35222)
- Sequence (P35222 whole entry): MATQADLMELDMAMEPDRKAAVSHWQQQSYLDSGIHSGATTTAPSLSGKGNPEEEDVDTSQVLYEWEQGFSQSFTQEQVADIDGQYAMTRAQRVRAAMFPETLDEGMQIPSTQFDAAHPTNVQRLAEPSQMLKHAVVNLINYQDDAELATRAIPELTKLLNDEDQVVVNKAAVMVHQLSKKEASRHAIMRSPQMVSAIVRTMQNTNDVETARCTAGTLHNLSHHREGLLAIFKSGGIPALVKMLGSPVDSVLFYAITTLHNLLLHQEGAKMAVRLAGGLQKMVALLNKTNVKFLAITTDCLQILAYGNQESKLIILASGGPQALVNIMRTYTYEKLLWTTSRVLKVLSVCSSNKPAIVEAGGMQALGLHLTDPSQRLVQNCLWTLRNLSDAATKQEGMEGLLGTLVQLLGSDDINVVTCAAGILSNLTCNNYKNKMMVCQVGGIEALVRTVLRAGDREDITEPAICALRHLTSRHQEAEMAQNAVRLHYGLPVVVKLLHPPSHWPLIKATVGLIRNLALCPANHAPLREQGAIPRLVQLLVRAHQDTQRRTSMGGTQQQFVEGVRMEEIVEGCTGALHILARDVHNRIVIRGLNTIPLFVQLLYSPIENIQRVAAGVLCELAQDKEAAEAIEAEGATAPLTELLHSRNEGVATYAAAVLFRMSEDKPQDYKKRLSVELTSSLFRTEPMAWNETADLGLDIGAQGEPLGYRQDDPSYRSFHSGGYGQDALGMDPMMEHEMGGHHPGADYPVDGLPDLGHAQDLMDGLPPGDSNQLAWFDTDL
- experiment_description: Fluorescence polarization IC50 (beta-catenin / 5FAM-TCF4 10-53 competition)
- Assay type: binding
- applied_conditions: fluorescence polarization; read-out: beta-Catenin FP IC50
pIC50: −log10 of the molar value.
property_measured: pIC50

compound	result_number
CC(=O)N1CCC[C@]12CC=CCCCC1(CCCC=CCCCOC(=O)N3CC[C@@](C(=O)N[C@@H](Cc4ccsc4)C(=O)N[C@@H](Cc4csc5ccccc45)C(=O)N[C@@H](CCC(N)=O)C(N)=O)(C3)NC(=O)[C@H](CC(C)C)NC(=O)[C@H](Cc3ccccc3)NC(=O)[C@H](CCN3CCOCC3)NC(=O)[C@H](C)NC(=O)[C@H](CC(=O)O)NC(=O)[C@H](CC(=O)O)NC1=O)NC(=O)[C@H](CC(C)(C)C)NC(=O)[C@H](CC(=O)O)NC2=O (some centres unmarked) [I-1504]	7.34
CC(=O)N1CCC[C@]12CC=CCCCC1(CCCC=CCCCOC(=O)N3CC[C@@](C(=O)N[C@@H](Cc4ccsc4)C(=O)N[C@@H](Cc4csc5ccccc45)C(=O)N[C@@H](CCC(N)=O)C(N)=O)(C3)NC(=O)[C@H](CC(C)C)NC(=O)[C@H](Cc3ccccc3)NC(=O)[C@H](C)NC(=O)[C@H](C)NC(=O)[C@H](Cn3cc(C4(C(=O)O)CC4)nn3)NC(=O)[C@H](CC(=O)O)NC1=O)NC(=O)[C@H](CC(C)(C)C)NC(=O)[C@H](CC(=O)O)NC2=O (some centres unmarked) [I-2445]	8.30
CC(=O)N1CCC[C@]12CC=CCCCC1(CCCC=CCCCOC(=O)N3CC[C@@](C(=O)N[C@@H](Cc4ccccc4C(F)(F)F)C(=O)N[C@@H](Cc4csc5ccccc45)C(=O)N[C@@H](C)C(N)=O)(C3)NC(=O)[C@H](CC(C)C)NC(=O)[C@H](Cc3ccccc3)NC(=O)[C@H](C)NC(=O)[C@H](CCC(=O)N3Cc4ccccc4C3)NC(=O)[C@H](Cc3cccc(C(=O)O)c3)NC(=O)[C@H](CC(=O)O)NC1=O)NC(=O)[C@H](CC(C)(C)C)NC(=O)[C@H](CC(=O)O)NC2=O (some centres unmarked) [I-2320]	7.54
CC(=O)N1CCC[C@]12CC=CCCCC1(CCCC=CCCCOC(=O)N3CC[C@@](C(=O)N[C@@H](Cc4ccccc4C(F)(F)F)C(=O)N[C@H](C(=O)N[C@@H](C)C(N)=O)[C@@H](C)c4ccc5ccccc5c4)(C3)NC(=O)[C@H](CC(C)C)NC(=O)[C@H](Cc3ccccc3)NC(=O)[C@H](C)NC(=O)[C@H](CCC(N)=O)NC(=O)[C@H](Cc3cccc(C(=O)O)c3)NC(=O)[C@H](CC(=O)O)NC1=O)NC(=O)[C@H](CC(C)(C)C)NC(=O)[C@H](CC(=O)O)NC2=O (some centres unmarked) [I-2465]	6.79
CCNC(=O)CC[C@H](NC(=O)[C@H](Cc1csc2ccccc12)NC(=O)[C@H](Cc1ccccc1C(F)(F)F)NC(=O)[C@]12CCN(C1)C(=O)OCCCC=CCCCC1(CCCC=CC[C@]3(CCCN3C(C)=O)C(=O)N[C@@H](CC(=O)O)C(=O)N[C@@H](CC(C)(C)C)C(=O)N1)C(=O)N[C@@H](CC(=O)O)C(=O)N[C@@H](Cc1cccc(C(=O)O)c1)C(=O)N[C@@H](CCC(=O)NCC)C(=O)N[C@@H](C)C(=O)N[C@@H](Cc1ccccc1)C(=O)N[C@@H](CC(C)C)C(=O)N2)C(N)=O (some centres unmarked) [I-2299]	8.15

====

- assay_system: full-length beta-Catenin (Uniprot ID P35222) (Homo sapiens, UniProt P35222)
- Construct: 10 nM full-length beta-Catenin (Uniprot ID P35222)
- experiment_description: Fluorescence polarization IC50 (beta-catenin / 5FAM-TCF4 10-53 competition)
- Type: binding
- applied_conditions: fluorescence polarization; read-out: beta-Catenin FP IC50
Quick list: IC50 per entry.

compound	IC50 / nM
CC(=O)N1CCC[C@]12CC=CCCCC1(CCCC=CCCCOC(=O)N3CC[C@@](C(=O)N[C@@H](Cc4ccsc4)C(=O)N[C@@H](Cc4csc5ccccc45)C(=O)N[C@@H](CCC(N)=O)C(N)=O)(C3)NC(=O)[C@H](CC(C)C)NC(=O)[C@H](Cc3ccccc3)NC(=O)[C@H](C)NC(=O)[C@H](C)NC(=O)[C@H](CNc3ccc([N+](=O)[O-])cc3C(=O)O)NC(=O)[C@H](CC(=O)O)NC1=O)NC(=O)[C@H](CC(C)(C)C)NC(=O)[C@H](CC(=O)O)NC2=O (some centres unmarked)	32
CC(=O)N1CCC[C@]12CC=CCCCC1(CCCC=CCCCOC(=O)N3CC[C@@](C(=O)N[C@@H](Cc4ccccc4C(F)(F)F)C(=O)N[C@@H](Cc4csc5ccccc45)C(=O)N[C@@H](CCC(N)=O)C(=O)N[C@@H](CC(C)C)C(=O)N[C@@H](C(N)=O)[C@H](C)O)(C3)NC(=O)[C@H](CC(C)C)NC(=O)[C@H](Cc3ccccc3)NC(=O)[C@H](C)NC(=O)[C@H](C)NC(=O)[C@H](Cc3cccc(C(=O)O)c3)NC(=O)[C@H](CC(=O)O)NC1=O)NC(=O)[C@H](CC(C)(C)C)NC(=O)[C@H](CC(=O)O)NC2=O (some centres unmarked)	53
CC(=O)N1CCC[C@]12CC=CCCCC1(CCCC=CCCCOC(=O)N3CC[C@@](C(=O)N[C@@H](Cc4ccccc4)C(=O)N[C@@H](Cc4csc5ccccc45)C(=O)N[C@@H](CCC(N)=O)C(N)=O)(C3)NC(=O)[C@H](CO)NC(=O)[C@H](Cc3ccccc3)NC(=O)[C@H](C)NC(=O)[C@H](CCCCNC(C)C)NC(=O)[C@H]([C@@H](C)O)NC(=O)[C@H](CC(=O)O)NC1=O)NC(=O)[C@H](CC(C)(C)C)NC(=O)[C@H](CC(N)=O)NC2=O (some centres unmarked)	2020
CCC[C@@H]1NC(=O)[C@H](CC(=O)O)NC(=O)[C@]2(CC=CCCCC3(CCCC=CCCCCCC[C@@](C)(C(=O)N[C@@H](Cc4ccccc4)C(=O)N[C@@H](Cc4csc5ccccc45)C(=O)N[C@@H](CCC(N)=O)C(N)=O)NC(=O)[C@H](CCC(N)=O)NC(=O)[C@H](Cc4ccccc4)NC(=O)[C@H](C)NC(=O)[C@H](C)NC(=O)[C@H](CCC(=O)O)NC(=O)[C@H](CC(=O)O)NC3=O)NC1=O)CCCN2C(C)=O (some centres unmarked) [I-523]	44
CC(=O)N1CCC[C@]12CC1OC1CCCC1(CCCC=CCCCOC(=O)N3CC[C@@](C(=O)N[C@@H](Cc4ccsc4)C(=O)N[C@@H](Cc4csc5ccccc45)C(=O)N[C@@H](CCC(N)=O)C(N)=O)(C3)NC(=O)[C@H](CC(C)C)NC(=O)[C@H](Cc3ccccc3)NC(=O)[C@H](C)NC(=O)[C@H](C)NC(=O)[C@H](CN(CC(=O)O)CC(F)(F)F)NC(=O)[C@H](CC(=O)O)NC1=O)NC(=O)[C@H](CC(C)(C)C)NC(=O)[C@H](CC(=O)O)NC2=O (some centres unmarked) [I-2595]	356

====

Quick list: pIC50 per entry.
- assay_system: full-length beta-Catenin (Uniprot ID P35222) (Homo sapiens)
- Construct: 10 nM full-length beta-Catenin (Uniprot ID P35222)
- experiment_description: Fluorescence polarization IC50 (beta-catenin / 5FAM-TCF4 10-53 competition)
- Format: binding
- applied_conditions: fluorescence polarization; read-out: beta-Catenin FP IC50
pIC50: −log10 of the molar value.

molecule	pIC50
CC(=O)N1CCC[C@]12CC=CCCCC1(CCCC=CCCCOC(=O)N3CC[C@@](C(=O)N[C@@H](Cc4ccsc4)C(=O)N[C@@H](Cc4csc5ccccc45)C(=O)N[C@@H](CC(N)=O)C(=O)N[C@@H](C)C(=O)N[C@@H](C)C(=O)N[C@@H](C)C(N)=O)(C3)NC(=O)[C@H](CC(C)C)NC(=O)[C@H](Cc3ccccc3)NC(=O)[C@H](C)NC(=O)[C@H](C)NC(=O)[C@H](Cc3cccc(C(=O)O)c3)NC(=O)[C@H](CC(=O)O)NC1=O)NC(=O)[C@H](CC(C)(C)C)NC(=O)[C@H](CC(=O)O)NC2=O (stereo partly drawn)	7.92
CC(=O)N1CCC[C@]12CC=CCCCC1(CCCC=CCCCCCC[C@@](C)(C(=O)N[C@@H](Cc3ccsc3)C(=O)N[C@@H](Cc3csc4ccccc34)C(=O)N[C@@H](CCC(N)=O)C(N)=O)NC(=O)[C@H](CC(N)=O)NC(=O)[C@H](Cc3ccccc3)NC(=O)[C@H](C)NC(=O)[C@H](C)NC(=O)[C@H](CC(=O)O)NC(=O)[C@H](CC(=O)O)NC1=O)NC(=O)[C@H](CC(C)(C)C)NC(=O)[C@H](CC(=O)O)NC2=O (stereo partly drawn) [I-678]	7.59
CC(=O)N1CCC[C@]12CC=CCCCC1(CCCC=CCCCOC(=O)N3CC[C@@](C(=O)N[C@@H](Cc4ccccc4Cl)C(=O)N[C@@H](Cc4csc5ccccc45)C(=O)N[C@@H](CCC(N)=O)C(N)=O)(C3)NC(=O)[C@H](CO)NC(=O)[C@H](Cc3ccccc3)NC(=O)[C@H](CC(C)C)NC(=O)[C@H](C)NC(=O)[C@H](CC(=O)O)NC(=O)[C@H](CC(=O)O)NC1=O)NC(=O)[C@H](Cc1ccccc1)NC(=O)[C@H](CC(=O)O)NC2=O (stereo partly drawn)	7.35
CC(=O)N1CCC[C@]12CC=CCCCC1(CCCC=CCCCOC(=O)N3CC[C@@](C(=O)N[C@@H](Cc4ccccc4)C(=O)N[C@@H](Cc4csc5ccccc45)C(=O)N[C@@H](CO)C(N)=O)(C3)NC(=O)[C@H]([C@@H](C)O)NC(=O)[C@H](Cc3ccc4ccccc4c3)NC(=O)[C@H](C)NC(=O)[C@H](C)NC(=O)[C@H]([C@@H](C)O)NC(=O)[C@H](CC(=O)O)NC1=O)NC(=O)[C@H](CC(C)(C)C)NC(=O)[C@H](CC(=O)O)NC2=O (stereo partly drawn)	6.74
CC(=O)N1CCC[C@]12CCCCCCC1(CCCCCCCCOC(=O)N3CC[C@@](C(=O)N[C@@H](Cc4ccsc4)C(=O)N[C@@H](Cc4csc5ccccc45)C(=O)N[C@@H](Cc4ccccc4)C(N)=O)(C3)NC(=O)[C@H]([C@@H](C)O)NC(=O)[C@H](Cc3ccccc3)NC(=O)[C@H](C)NC(=O)[C@H](C)NC(=O)[C@H](CN(CC(=O)O)CC(F)(F)F)NC(=O)[C@H](CC(=O)O)NC1=O)NC(=O)[C@H](CC(C)(C)C)NC(=O)[C@H](CC(=O)O)NC2=O (stereo partly drawn)	6.48
CC(=O)N1CCC[C@]12CC=CCCCC1(CCCC=CCCCOC(=O)N3CC[C@@](C(=O)N[C@@H](Cc4ccsc4)C(=O)N[C@@H](Cc4csc5ccccc45)C(=O)N[C@@H](Cc4c[nH]cn4)C(N)=O)(C3)NC(=O)[C@H](CC(N)=O)NC(=O)[C@H](Cc3ccccc3)NC(=O)[C@H](C)NC(=O)[C@H](C)NC(=O)[C@H]([C@@H](C)O)NC(=O)[C@H](CC(N)=O)NC1=O)NC(=O)[C@H](CC(C)(C)C)NC(=O)[C@H](CC(=O)O)NC2=O (stereo partly drawn) [I-2140]	6.63
CC(=O)N1CCC[C@]12CC=CCCCC1(CCCC=CCCCOC(=O)N3CC[C@@](C(=O)N[C@@H](Cc4ccsc4)C(=O)N[C@@H](Cc4csc5ccccc45)C(=O)N[C@@H](CCC(N)=O)C(N)=O)(C3)NC(=O)[C@H](CC(C)C)NC(=O)[C@H](Cc3ccccc3)NC(=O)[C@H](CC(=O)N3CCOCC3)NC(=O)[C@H](C)NC(=O)[C@H](CC(=O)O)NC(=O)[C@H](CC(=O)O)NC1=O)NC(=O)[C@H](CC(C)(C)C)NC(=O)[C@H](CC(=O)O)NC2=O (stereo partly drawn)	7.52
CC(=O)N1CCC[C@]12CC=CCCCC1(CCCC=CCCCOC(=O)N3CC[C@@](C(=O)N[C@@H](Cc4ccsc4)C(=O)N[C@@H](Cc4ccc(F)c(Br)c4)C(=O)N[C@@H](CCC(N)=O)C(N)=O)(C3)NC(=O)[C@H](CC(C)C)NC(=O)[C@H](Cc3ccccc3)NC(=O)[C@H](C)NC(=O)[C@H](C)NC(=O)[C@H](Cc3cccc(C(=O)O)c3)NC(=O)[C@H](CC(=O)O)NC1=O)NC(=O)[C@H](CC(C)(C)C)NC(=O)[C@H](CC(=O)O)NC2=O (stereo partly drawn)	8.15
CC(=O)N1CCC[C@]12CC=CCCCC1(CCCC=CCCCOC(=O)N3CC[C@@](C(=O)N[C@@H](Cc4ccsc4)C(=O)N[C@@H](Cc4cccc5ccccc45)C(=O)N[C@@H](CCC(N)=O)C(N)=O)(C3)NC(=O)[C@H](CC(N)=O)NC(=O)[C@H](Cc3ccccc3)NC(=O)[C@H](C)NC(=O)[C@H](C)NC(=O)[C@H]([C@@H](C)O)NC(=O)[C@H](CC(N)=O)NC1=O)NC(=O)[C@H](CC(C)(C)C)NC(=O)[C@H](CC(=O)O)NC2=O (stereo partly drawn) [I-1870]	5.82
